- PROTOCOL DETAILS: yeast display, Sf9 membrane polyspecificity reagent, FACS + sequencing; frameworks hold sequencing errors
MEASURED ATTRIBUTE: polyreactivity (PSR sort gate)

{"INPUT SEQUENCE": "QVQLVESGGGLVQAGGSLRLSCAASGFIFGRYAMGWYRQAPGKERELVAAISSGDDTDYADSVKGRFTISRYNAKNTVYLLMNSLIPEDTAVYYCARSRFWSPVNYRRTIEFDSWGQGTQVTVSS", "MEASURED ATTRIBUTE": "polyreactivity (PSR sort gate)", "ASSAY VALUE": "low polyreactivity"}
{"INPUT SEQUENCE": "QVQLVESGGGLVQAGGSLRLSCAASGSTFTVNAMGWYRQAPGKERELVAAINWSGGSTYYADSVKGRFTISRDNAKNTVYLQMNSLKPEDTAVYYCNKDREPYGYWSFDYWGQGTQVTVSS", "MEASURED ATTRIBUTE": "polyreactivity (PSR sort gate)", "ASSAY VALUE": "low polyreactivity"}
{"INPUT SEQUENCE": "QVQLVESGGGLVQAGGSLRLSCAASGSIFLYNAMGWYRQAPGKESEFDAAISWSGVSTYYADSVKGRFTISRDNAKNTVYLHMNSLKPEDTAVYYCNAVYARVPIYDYWGQGTQVTVSS", "MEASURED ATTRIBUTE": "polyreactivity (PSR sort gate)", "ASSAY VALUE": "low polyreactivity"}
{"INPUT SEQUENCE": "QVQLVESGGGLVQAGGSLRLSCAASGRIFGDNAMGWYRQAPGKERELVAGIRWRADRTYYADSVKWRFTISRDNAKNTVYLQMNSLKPEDTAVYYCNVGSFTGHSYGFGYWGQGTQVTVSS", "MEASURED ATTRIBUTE": "polyreactivity (PSR sort gate)", "ASSAY VALUE": "low polyreactivity"}
{"INPUT SEQUENCE": "QVQLVESAGGLVQAGGRLRLSCAASGFTFKKYAMGWYRQAPGKERELVASITWSGGSTSYADSVKGRFTISRDNAKNTVYLQMTSLKPEDTAVYYCAAATFVYRLRYNRFDYGGQGTQVTVSS", "MEASURED ATTRIBUTE": "polyreactivity (PSR sort gate)", "ASSAY VALUE": "high polyreactivity"}

Consider the sequence QVQLVESGGGLVQAGGSLRLSCAASGRTFFVNAMGWYRQAPGKERELVAAITWSGGSTYYADSVKGRFTISRDNAKNTVYLQMNSLKPEDTAVYYCAAEYYSYSYSYYYYGYEYWGQGTQVTVSS and give its recorded polyreactivity (PSR sort gate). high polyreactivity
